Here the recorded Fold PAD3 Selectivity is given for each entry.
biological target: PAD3 (Homo sapiens); construct: made in house; assay: Inactivation kinetics, PAD3; format: biochemical; conditions: kinact/KI relative to least inhibited isozyme (1.0)
Sequence (Q9ULW8 whole entry): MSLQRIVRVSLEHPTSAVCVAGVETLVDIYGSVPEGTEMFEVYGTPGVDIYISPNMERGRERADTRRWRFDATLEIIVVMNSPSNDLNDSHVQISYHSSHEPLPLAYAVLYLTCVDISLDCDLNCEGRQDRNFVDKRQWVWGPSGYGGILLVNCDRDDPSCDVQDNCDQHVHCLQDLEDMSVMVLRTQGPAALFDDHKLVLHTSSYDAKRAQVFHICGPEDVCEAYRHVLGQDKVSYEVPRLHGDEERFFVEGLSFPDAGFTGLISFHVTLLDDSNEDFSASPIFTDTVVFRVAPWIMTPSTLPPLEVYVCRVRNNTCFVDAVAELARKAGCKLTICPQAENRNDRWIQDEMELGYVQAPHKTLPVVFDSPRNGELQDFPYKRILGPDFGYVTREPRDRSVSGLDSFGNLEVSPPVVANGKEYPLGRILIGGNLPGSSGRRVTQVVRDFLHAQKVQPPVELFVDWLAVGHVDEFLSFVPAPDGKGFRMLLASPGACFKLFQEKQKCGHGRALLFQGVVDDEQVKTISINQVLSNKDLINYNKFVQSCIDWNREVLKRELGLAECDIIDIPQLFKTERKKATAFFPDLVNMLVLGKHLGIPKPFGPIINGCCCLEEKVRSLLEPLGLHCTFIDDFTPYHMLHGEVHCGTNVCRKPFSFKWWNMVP
Entry rule: numbers only, all in fold.

query smiles: COc1cccc2c1nc([C@H](CCCNC(=N)CCl)NC(=O)c1cccc3c1C(=O)N(C1CC1)C3)n2C
measured on: PAD3 (Homo sapiens)
unit of measure: fold
Fold PAD3 Selectivity: 1.1

query smiles: N=C(CF)NCCC[C@H](NC(=O)c1ccccc1C(=O)O)c1nc2ccccc2[nH]1
measured on: PAD3 (Homo sapiens)
unit of measure: fold
Fold PAD3 Selectivity: 4.3

query smiles: CC(C)n1c([C@H](CCCNC(=N)CCl)NC(=O)c2ccc(-c3ccccc3)cc2)nc2ccccc21
measured on: PAD3 (Homo sapiens)
unit of measure: fold
Fold PAD3 Selectivity: 12

Summary for this compound, `COc1ccc2c(c1)nc([C@H](CCCNC(=N)CF)NC(=O)c1cccc3c1C(=O)NC3)n2C` : Fold PAD3 Selectivity is 1.0

Source: patent US11208386B2
